- ASSAY INFO: cell viability in Huh7 cells, primary screen, cytotoxicity control for HCV replication inhibitor project, CellTiter-Glo luminescence, basal, 48 h (AID 1143);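 note: Huh7 hepatoma cells carrying a hepatitis C replication reporter with no stimulus; test concentration not given here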
- TEST SETTINGS: Huh7 HCV replicon, higher = more signal, called active from +8 up or from −8 down
This listing pairs molecules with measured z-score.

# STRUCTURE, z-score
records = [
    ("C#C[C@@H](CC)O[Si](C#CCCCC#N)(C(C)C)C(C)C", -0.667),
    ("[N-]=[N+]=Nc1ccccc1[C@@H]1OC(c2ccc(OCCCO)cc2)=N[C@]1(Cc1ccccc1)C(=O)NCc1ccccc1", -3.97),
    ("C[C@]1(C(=O)NCC(F)(F)F)c2ccccc2C(=O)N(Cc2ccccc2)[C@H]1c1ccc(CO)cc1", -1.48),
    ("C=CCOC(=O)[C@H]1[C@@H]2C(=O)O[C@@H](c3ccccc3)[C@@H](c3ccccc3)N2[C@@H](c2ccc(OCCOC(=O)[C@H]3C[C@H]4C(=O)N[C@@H](CCCCNC(C)=O)C(=O)N4[C@H]3c3cccc(OCCO)c3)cc2)[C@]12C(=O)Nc1ccc(I)cc12", -2.16),
    ("NCCCCCNC(=O)[C@@H]1C[C@@H]2C(=O)N3CCC[C@H]3C(=O)N2[C@@H]1c1ccc(O)cc1", -0.406),
    ("O=c1cccc(-c2ccc(F)cc2)o1", 0.0779),
    ("[N-]=[N+]=Nc1ccccc1C[C@]1(C(=O)O)N=C(c2ccc(OCCCO)cc2)O[C@H]1c1ccccc1", -0.218),
    ("O=C(NCCN1CCOCC1)[C@@H]1c2ccccc2C(=O)N(Cc2ccccc2)[C@H]1c1ccc(CO)cc1", -1.62),
    ("CCCCC(=C=CC[C@H](O)c1ccc(OCCO)cc1)C[C@H](O)c1cc(Cl)cc(Cl)c1O", -0.849),
    ("CN(C)C(=O)[C@@]1(Cc2ccccc2)COC(c2ccc(OCCCO)cc2)=N1", -2.58),
]

----------
- ASSAY INFO: HepG2 cell viability effects, profiling panel, calcein-AM fluorescence, 48 h, basal (AID 1164); note: test concentration not given here
- TEST SETTINGS: higher = more signal
Rule: z-score under 0.3 gives not satisfied, otherwise satisfied.

# COMPOUND, ASSIGNED CLASS
measured = [
    ("CN(C)CCCCCCNC(=O)[C@@H]1C[C@@H]2C(=O)N[C@@H](CCCCN)C(=O)N2[C@@H]1c1ccc(O)cc1", "not satisfied"),
    ("COc1ccc([Si](C)(C)[C@H]2[C@H](CC(=O)N3CCC[C@H]3CO)O[C@@]3(C(=O)N(Cc4ccc(N5CCC5=O)cc4)c4ccccc43)[C@@H]2C)cc1", "not satisfied"),
    ("COC(=O)C(CC#Cc1ccc2c(c1)[C@]1(C(=O)N2)[C@H](c2ccc(O)cc2)N2[C@H](c3ccccc3)[C@H](c3ccccc3)OC(=O)[C@H]2[C@@H]1C(=O)N1CCCCCCC1)C(=O)OC", "satisfied"),
    ("CC(C)=CCCC(C)=CC(O)C1C=CC2C(=O)N(c3ccccc3)C(=O)C2N1Nc1ccccc1F (stereo not given)", "satisfied"),
    ("CCCNC(=O)[C@@]1(Sc2ccc(C)cc2)CC(=O)N(C(C)C)[C@@H]1c1ccc(CO)cc1I", "not satisfied"),
    ("CCOC(=O)C1=CC[C@@H](c2ccccc2)N(S(=O)(=O)c2ccc(C)cc2)[C@H]1C=Cc1ccccc1", "not satisfied"),
    ("C=C(COC)/C(=C/C[C@@H](OC(C)=O)c1ccc(CO)o1)c1cc(C(=O)OC)ccc1OC", "satisfied"),
    ("Cc1ccc(C(C)CC(O)C2C=CC3C(=O)N(c4ccccc4)C(=O)C3N2Nc2ccc(C#N)cc2)o1 (stereo not given)", "satisfied"),
    ("CC(C)C[C@@H]1NC(=O)[C@@H]2C[C@H](C(=O)NCCCCCC[N+](C)(C)C)[C@H](c3cccc(OCCO)c3)N2C1=O", "not satisfied"),
    ("Nc1cc(Br)ccc1C(=O)O", "not satisfied"),
    ("NC(=O)[C@@H]1[C@H]2C(=O)O[C@H](c3ccccc3)[C@H](c3ccccc3)N2[C@H](c2ccc(OCCO)cc2)[C@@]12C(=O)Nc1ccc(C#CCCO)cc12", "satisfied"),
    ("Cc1ccccc1C(O)C1C=CC2C(=O)N(c3ccccc3)C(=O)C2N1Nc1ccc([N+](=O)[O-])cc1 (stereo not given)", "not satisfied"),
    ("CC(C)(C)OC(=O)CC[C@]12N=C(c3ccc(OCCCO)cc3)O[C@H]1c1ccccc1N(Cc1ccccc1)C2=O", "satisfied"),
    ("C=C[C@H](C)[C@H](OC(=O)Nc1ccc(OC)cc1)c1ccc(OCCO)cc1", "satisfied"),
    ("COC(=O)[C@@]1(Cc2ccc(F)cc2)[C@H]2c3cc(C(=O)N4CCCC4)n(C)c3C[C@H]2CN1C(=O)c1ccccc1", "not satisfied"),
    ("C=CCC(OC(C)=O)[C@@H]1[C@@H](N(Cc2ccc(-c3ccccc3)cc2)C(=O)Cc2ccc(F)cc2)c2cc(OCCCO)ccc2N1C(=O)Cc1ccc2ccccc2c1 (stereo not given in full)", "satisfied"),
    ("COC(=O)[C@@]1(Cc2ccc(OC)cc2)[C@H]2c3cc(C(=O)N4CCCC4)n(Cc4ccc(S(C)(=O)=O)cc4)c3C[C@H]2CN1C(=O)c1ccccc1", "satisfied"),
    ("CC(C)[Si]1(C(C)C)OCc2cc(-c3ccc(-c4ccc(Cl)c(Cl)c4)o3)nc(CCc3ccccc3)c21", "not satisfied"),
    ("CCN(CC)c1ccc(N2CC=CC34O[C@@H]5/C=C\\CCC(C)OC(=O)C5[C@H]3C(=O)N(C(C)CO)[C@@H]4C2=O)cc1 (stereo not given in full)", "satisfied"),
]

----------
- Test system: Human papillomavirus type 1a E7 protein (residues 1-88)
- ASSAY INFO: HPV1a E7 small-molecule binders, primary screen, biochemical, small-molecule microarray, residues 1-88, 635 nm (AID 1129)
- TEST SETTINGS: small-molecule microarray binding, fluorescence 635 nm; higher = more signal
Overview of reported composite z-score across a group of molecules:
RESULT TYPE: composite z-score

# MOLECULE, VALUE MEASURED
data = [
    ("CCCCCCCCCCC(O)C1C=CC2C(=O)N(C)C(=O)C2N1Nc1cc(OC)c(OC)c(OC)c1 (stereo not drawn)", 0.242),
    ("O=C1[C@@H]2[C@@H](CC(COc3ccccc3)=C3[C@@H](CCc4ccccc4)OB(O)C[C@@H]32)C(=O)N1Cc1ccccc1", 0.871),
    ("C=C(C)[C@@H]1CC=C(C(O)C2C=CC3C(=O)N(c4ccccc4)C(=O)C3N2Nc2ccc(C#N)cc2)CC1 (stereo partly drawn)", 1.26),
]

----------
- ASSAY INFO: modulators of HCV replicon luciferase signal, primary screen, HCV replication inhibitor project, Huh7 cells, luciferase reporter (AID 1109);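 note: huh7 hepatoma cells harbouring a luciferase neomycin HCV replicon reporter; luciferase luminescence as measure of HCV replicon replication; test concentration not given here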
- TEST SETTINGS: 48 h, higher = more signal
// no (0) strictly below -0.8 in z-score; yes (1) otherwise

# COMPOUND, ASSIGNED CLASS
records = [
    ("O=C1[C@@H]2[C@@H](CC(COc3ccccc3)=C3[C@@H](CCc4ccccc4)OB(O)C[C@@H]32)C(=O)N1Cc1ccccc1", "no (0)"),
    ("COc1ccc(CCNC(=O)[C@@]2(Cc3ccccc3I)c3ccccc3C(=O)N(Cc3ccccc3Cl)[C@H]2c2ccc(CO)cc2)cc1", "no (0)"),
    ("C=C(/C(=C/C[C@@H](OC(C)=O)c1ccc(CO)o1)c1cc(C(=O)OC)ccc1OC)C(C)C", "no (0)"),
    ("COCC(=C=CC[C@@H](O)c1ccc(OCCO)cc1)CCO", "yes (1)"),
    ("C=CCNC(=O)[C@H]1[C@@H]2C(=O)O[C@@H](c3ccccc3)[C@@H](c3ccccc3)N2[C@@H](c2ccc(OCCO)cc2)[C@]12C(=O)Nc1ccc(C#CCNC(N)=O)cc12", "yes (1)"),
    ("CCc1cccc(NC(=O)O[C@H]2[C@H](OC(=O)Nc3ccccc3)[C@H](OC(=O)Nc3ccccc3)[C@@H](OC)O[C@@H]2CO)c1", "no (0)"),
    ("C=C(CCCC)C(=O)CC[C@H](OC(=O)c1ccccc1-c1ccccc1C(=O)O)c1ccccc1OCCO", "no (0)"),
    ("COc1ccc([Si](C)(C)[C@@H]2[C@@H](CC(=O)N3Cc4ccccc4C[C@H]3CO)O[C@]3(C(=O)N(Cc4ccc(N5CCC5=O)cc4)c4ccccc43)[C@H]2C)cc1", "no (0)"),
    ("CCCNC(=O)[C@@]1(Sc2ccc(C)cc2)CC(=O)N(C(C)C)[C@@H]1c1ccc(CO)cc1I", "no (0)"),
    ("COC(=O)C(CC#Cc1ccc2c(c1)[C@]1(C(=O)N2)[C@H](C(=O)Nc2nc3ccccc3s2)[C@H]2C(=O)O[C@H](c3ccccc3)[C@H](c3ccccc3)N2[C@@H]1c1ccc(OCCO)cc1)C(=O)OC", "no (0)"),
    ("COc1ccc(C(O)C2C=CC3C(=O)N(c4ccccc4)C(=O)C3N2Nc2ccc(C(C)C)cc2)c2ccccc12 (stereo not drawn)", "yes (1)"),
    ("COC(=O)[C@@]1(Cc2ccc(F)cc2)[C@H]2c3cc(C(=O)N4CCCC4)n(CC4CC4)c3C[C@H]2CN1C(=O)c1ccccc1", "no (0)"),
    ("C=C[C@@H](C)[C@H](O)c1ccc(OCCO)cc1", "yes (1)"),
    ("CN1C=C(C(=O)OCCS(C)(=O)=O)C(C(=O)OCCS(C)(=O)=O)=CC(c2ccc(CO)cc2)=CC1c1cccs1 (stereo not drawn)", "yes (1)"),
    ("CCOC(=O)C1=CCN(S(=O)(=O)c2ccc(C)cc2)C1c1ccccc1 (stereo not drawn)", "no (0)"),
    ("CC(C)CNC(=O)[C@@H]1c2ccccc2C(=O)N(C2CCCCC2)[C@H]1c1ccc(CO)cc1", "yes (1)"),
    ("COCCCNC(=O)[C@@]1(c2ccc([N+](=O)[O-])cc2)CC(=O)N(C(C)C)[C@@H]1c1ccc(CO)cc1", "yes (1)"),
    ("NC(=O)[C@H]1[C@@H]2C(=O)O[C@@H](c3ccccc3)[C@@H](c3ccccc3)N2[C@@H](c2ccc(O)cc2)[C@]12C(=O)Nc1ccccc12", "yes (1)"),
    ("COCCOC(=O)N1C(=O)[C@@]2(c3cc(C#CCCO)ccc31)[C@H](C(=O)N1CCCCCCC1)[C@H]1C(=O)O[C@H](c3ccccc3)[C@H](c3ccccc3)N1[C@@H]2c1ccccc1OCCO", "no (0)"),
    ("COC(=O)C(CC#Cc1ccc2c(c1)[C@]1(C(=O)N2)[C@H](c2ccc(OCCO)cc2)N2[C@H](c3ccccc3)[C@H](c3ccccc3)OC(=O)[C@H]2[C@@H]1C(=O)N1CCN(c2ncccn2)CC1)C(=O)OC", "no (0)"),
    ("Cc1ccc(S[C@]2(C(=O)NC(C)C)CC(=O)N(Cc3ccccc3Cl)[C@@H]2c2ccc(CO)cc2)cc1", "no (0)"),
    ("CCOC(=O)C=Cc1ccccc1O", "no (0)"),
    ("O=C1O[C@H](c2ccccc2)[C@H](c2ccccc2)N2[C@H]1[C@@H](C(=O)N1CCCCCCC1)[C@]1(C(=O)Nc3ccc(C#CC4(O)CCCCCC4)cc31)[C@H]2c1ccc(O)cc1", "no (0)"),
]
